Every entry's value here was drawn from PubChem BioAssay (NCI).

Catalogue of growth readings, one per entry.
# Tested on: OVCAR-4 ovarian
# protocol_details: NCI-60 one-dose screen, 48 h (100 = growth as untreated, 0 = no growth, -100 = all killed)
# assay_conditions: 10 µM
About 83,000 compounds went through this panel and 20% of them were active in at least one assay; those are over-represented in the sample as a whole.

| compound | growth [%] |
| --- | --- |
| O=c1cc(-c2ccccc2)[nH]c2c1CCCC2 | 49.8 |
| CCCCCCCCCCC(C)Br (stereo not given) | 109 |
| S=c1[nH]ccn1-c1ccccc1Cl | 103 |
| CCC(C)(O)c1ccc(C)cc1 (stereo not given) | 106 |
| Cc1cc2nc(CC(=O)c3ccccc3)c(=O)[nH]c2cc1C | 102 |
| CC1CCC(C(=O)O)N1 (stereo not given) | 99 |
| CCCC(=O)Nc1ccc2c(c1)CN1C(=O)c3ccccc3C1=N2 | 107 |
| CC(=O)c1c[nH]c2ccccc12 | 99.8 |
| NC(=O)c1ccc(N=C(N)N=C(N)N)cc1 | 98.2 |
| O=C(O)/C=C/C(=O)NCc1ccccc1 | 107 |
| O=C(OCC(O)C1OC(c2ccccc2)OC(COC(=O)c2ccccc2)C1O)c1ccccc1 (stereo not given) | 93.2 |
| COc1cc(-c2ccc(NC(=O)NC3CC3)c(OC)c2)ccc1NC(=O)NC1CC1 | 80.4 |
| Cc1c(O)cnc2nn(-c3ccccc3)c(=N)n12 | 95.8 |
| O=c1[nH]n(-c2ccccc2)c(=O)cc1Cl | 112 |
| CCCCNC(=O)C(=O)NCCCC | 108 |
| COc1ncnc2c1cnn2C | 117 |
| O=C(NCCNC(=O)c1ccc(Cl)cc1Cl)c1ccc(Cl)cc1Cl | 104 |
| O=C(CN1CCNCC1)N1CCOCC1 | 110 |
| O=C(O)[C@@H]1[C@H]2C[C@H]3c4[nH]c5ccccc5c4CCN3C[C@@H]2CC[C@@H]1O | 103 |
| CCCCNC1(C#N)CCN(Cc2ccccc2)CC1 | 103 |
| CC(C)=C(NC(=O)c1ccccc1)C(=O)O | 118 |
| O=C(O)CCCc1ccccc1 | 117 |
| O=[N+]([O-])c1cccc2nsnc12 | 114 |
| CC(=O)c1ccc2c(ccc3ccccc32)c1 | 100 |
| O=C(Cc1nc2ccc([N+](=O)[O-])cc2nc1CC(=O)c1ccccc1)c1ccccc1 | 34.3 |
| NC(C(=O)O)C(O)c1ccco1 (stereo not given) | 114 |
| O=C(O)c1ccc(S(=O)(=O)O)cc1 | 104 |
| CCOc1ccccc1/C=N/Nc1nc2ccccc2o1 | 41.9 |
| CN(C)c1ccc(C(c2ccc(O)cc2)c2ccc(N(C)C)cc2)cc1 | 94.9 |
| CCCNc1ccc(C2=NCCCN2)cc1 | 100 |
| O/N=C/c1ccc(O)cc1O | 109 |
| CCNc1nc2c(cnn2C)c(=O)[nH]1 | 109 |
| Cc1cc2nc(CC(=O)c3cccc([N+](=O)[O-])c3)c(=O)[nH]c2cc1C | 89.4 |
| O=C(Cc1ccc(OCc2ccccc2)cc1)NCc1ccc2c(c1)OCO2 | 107 |
| O=C(Cc1nc2ccc([N+](=O)[O-])cc2nc1CC(=O)c1cccnc1)c1cccnc1 | 57.7 |
| Nc1nc2c(c(-c3nc(N)nc4c3CCc3ccccc3-4)n1)CCc1ccccc1-2 | 101 |
| CCOC(=O)c1cc(/C=C/c2cccc(Cl)c2)on1 | 83.7 |
| N#Cc1ccc(NC(=O)Nc2cccc(C#N)c2)cc1 | 91.2 |
| Cn1cnc2nc(Cl)nc(Cl)c21 | 42.4 |
| O=C(CC(=O)c1ccccc1O)c1ccccc1 | 90.6 |

====

Catalogue of growth readings, one per entry.
# Tested on: SW-620 colon
# protocol_details: NCI-60 one-dose screen, 48 h (100 = growth as untreated, 0 = no growth, -100 = all killed)
# assay_conditions: 10 µM
About 83,000 compounds went through this panel and 20% of them were active in at least one assay; those are over-represented in the sample as a whole.

| compound | system_name | unit_abbreviation | growth |
| --- | --- | --- | --- |
| Oc1ccc(N=Nc2ccc(Br)cc2)c(O)c1 | SW-620 colon | % | 18.8 |
| Nc1ccccc1SC(CC(=O)c1ccccc1)c1c(Cl)cccc1Cl (stereo not given) | SW-620 colon | % | 10.2 |
| CCOC(=O)CSc1c([N+](=O)[O-])ncn1C | SW-620 colon | % | 103 |
| Oc1ccc2c(c1)OCC1(O)Cc3cc(O)c(O)cc3C21 (stereo not given) | SW-620 colon | % | 95 |
| c1ccc(CN2COc3c(ccc4c3OCN(Cc3ccccc3)C4)C2)cc1 | SW-620 colon | % | 29.8 |

====

# Tested on: ACHN renal
# protocol_details: NCI-60 one-dose screen, 48 h
# assay_conditions: 10 µM
Compounds without any hit were thinned out: in the full panel of roughly 83,000, 20% have a hit. Calls of active or inactive are those of the source. The calls were made as follows: active = growth percent below 10; inactive = the rest.
Outcome codes: active, inactive

| compound | group |
| --- | --- |
| CC(C)(C)n1nc(C2CC2)c(Br)c1NC(=O)c1ccccc1F | inactive |
| CCOC(=O)C(CCC(C)C)C(=O)OCC | inactive |
| O=C(O)/C=C/C(=O)NCc1ccccc1 | inactive |
| Cc1cc(=O)n(-c2ccc(F)cc2)[nH]1 | inactive |
| Cc1ccc(C(=O)NC2c3ccccc3Oc3ccccc32)cc1 | inactive |
| CC1(C)S(=O)(=O)OCCOS1(=O)=O | inactive |
| O=C1OC(=O)C2C1C1(Cl)C(Cl)=C(Cl)C2(Cl)C2C(=O)OC(=O)C21 (configuration not stated) | inactive |
| COC(=O)c1cccnc1 | inactive |
| COc1cc(/C=C(\C#N)C(=O)c2ccccc2)ccc1OCc1ccccc1 | inactive |
| CC(=O)c1ccc(C)c(N)c1 | inactive |
| Cc1cc(N)c(S(=O)(=O)O)c(N)c1 | inactive |
| COc1cc2cc(c1Cl)N(C)C(=O)C[C@H](OC(=O)[C@H](C)N(C)C(C)=O)[C@]1(C)O[C@H]1[C@H](C)[C@@H]1C[C@@](O)(NC(=O)O1)[C@H](OC)C=C/C=C(\C)C2 | inactive |
| CC1(C(=O)O)NC(C(=O)O)Cc2c1[nH]c1ccccc21 (configuration not stated) | inactive |
| CC(=O)c1c[nH]c2ccccc12 | inactive |
| CC(=O)OCC1CCCO1 (configuration not stated) | inactive |
| CCOC(=O)C(=O)C=P(c1ccccc1)(c1ccccc1)c1ccccc1 | inactive |
| COc1cc2c(cc1O)CC[C@@H]1C2CC[C@@]2(C)C1CC[C@@H]2O (some centres not stated) | inactive |
| Cc1cc(=O)[nH]c(NN=C2CCCC2)n1 | inactive |
| Cc1cc(N)ccc1-c1ccc(N)cc1C | inactive |
| Clc1ccc(-c2n[nH]c3c2Cc2ccccc2-3)cc1Cl | inactive |
| CC1(C)OC(=O)C(c2ccsc2)C(=O)O1 | inactive |
| CCCCNC(=O)C(=O)NCCCC | inactive |
| O=C(CS)Nc1ccc2ccccc2c1 | inactive |
| Nc1ccc(CC(=O)O)c(N)c1 | inactive |
| O=[N+]([O-])c1ccccc1N=Nc1ccc(O)cc1O | inactive |
| O=C1C[C@H](c2ccccc2)[C@H](c2ccccc2)C1 | inactive |
| O=C(c1ccccc1)C1CCC1 | inactive |
| O=c1[nH]cc(Cl)cc1O | inactive |
| CCCCC/C=N/Nc1nc(C)cc(=O)[nH]1 | inactive |
| Cc1ccc(Cl)cc1NC(=O)N(C)CCO | inactive |
| Nc1ccc(N=Nc2ccc(O)cc2)c(N)n1 | inactive |
| CN(C)/N=C/c1ccccc1O | inactive |
| Nc1ncnc2[nH]ncc12 | active |
| CCCCCCCCO | inactive |
| O=C(NCc1ccco1)Nc1c(Cl)cc(Cl)cc1Cl | inactive |
| COc1ccc(Oc2c(I)cc(CC(NC(C)=O)C(=O)O)cc2I)cc1 (configuration not stated) | inactive |
| COc1cc(CCN=Cc2ccccc2O)c([N+](=O)[O-])cc1OC | inactive |
| Cc1cc(C(O)(c2ccc(Nc3ccccc3)cc2)c2ccc(Nc3ccc(S(=O)(=O)O)cc3)cc2)ccc1N (configuration not stated) | active |
| Cc1nc2ccccc2c2nnc(SCC(=O)N(Cc3ccccc3)c3ccccc3)n12 | inactive |
| NC(CSC(c1ccccc1)(c1ccccc1)c1ccccc1)C(=O)O (configuration not stated) | inactive |
| Cc1ccc(Cl)cc1N1C(=O)CC(Sc2ccccc2N)C1=O (configuration not stated) | inactive |
| CNc1nc(NC)c2cn[nH]c2n1 | inactive |

====

Catalogue of growth readings, one per entry.
# Test system: HS 578T breast
# protocol_details: NCI-60 one-dose screen, 48 h (100 = growth as untreated, 0 = no growth, -100 = all killed)
# assay_conditions: 10 µM
Compounds without any hit were thinned out: in the full panel of roughly 83,000, 20% have a hit.

| compound | unit_abbreviation | growth |
| --- | --- | --- |
| CC1CCC(C(=O)O)N1 (stereo not given) | % | 106 |
| CCCCC/C=N/Nc1nc(C)cc(=O)[nH]1 | % | 101 |
| O=C1N(C[P+](c2ccccc2)(c2ccccc2)c2ccccc2)CCCN1C[P+](c1ccccc1)(c1ccccc1)c1ccccc1 | % | 99.8 |
| CCCCC(O)c1ccccc1 (stereo not given) | % | 116 |
| COC(=O)Nc1nc2ccc(C(=O)c3cccs3)cc2[nH]1 | % | 20.9 |
| CCN=c1cc2sc3cc(NCC)c(C)cc3nc-2cc1C | % | 50.8 |
| COc1cc(CCN=Cc2ccccc2O)c([N+](=O)[O-])cc1OC | % | 114 |
| CC(C(=O)O)(C1CCCCC1)C1(O)CCCCC1 (stereo not given) | % | 119 |
| Cc1ccc(O)c(C(=O)c2ccccc2)c1 | % | 108 |
| S=C1NCc2cncnc2N1 | % | 105 |
